Value source: patent US20120328625A1

# tested.system: Shh-N in conditioned medium (human, UniProt Q15465 24-197, N-terminal palmitoyl modification; lacks the C-terminal cholesterol moiety)
# procedure.summary: cell-based or functional assay
measured.attribute: % Inhibition of Gli1 reporter, Conditioned Media N = 2, 20 µg/ml (%)
One number for each entry, in %.

Observe how each entry below is paired with its result.
4B6 (antibody, V domains shown, fully human XenoMouse hybridoma antibody; tested as hybridoma supernatant and as purified antibody; also called MAb 4B6) VH: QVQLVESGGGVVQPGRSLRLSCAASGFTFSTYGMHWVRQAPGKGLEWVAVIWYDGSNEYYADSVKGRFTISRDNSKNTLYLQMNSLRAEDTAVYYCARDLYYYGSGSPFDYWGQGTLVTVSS VL: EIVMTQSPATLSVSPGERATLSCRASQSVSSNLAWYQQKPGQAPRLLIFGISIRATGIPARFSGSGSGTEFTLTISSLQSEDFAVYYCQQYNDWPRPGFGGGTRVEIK = 43
1H12 (antibody, V domains shown, fully human XenoMouse hybridoma antibody; tested as hybridoma supernatant and as purified antibody; also called MAb 1H12) VH: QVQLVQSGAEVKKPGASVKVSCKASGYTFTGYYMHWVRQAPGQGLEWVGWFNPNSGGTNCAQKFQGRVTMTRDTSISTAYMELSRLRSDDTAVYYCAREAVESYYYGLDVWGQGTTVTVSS VL: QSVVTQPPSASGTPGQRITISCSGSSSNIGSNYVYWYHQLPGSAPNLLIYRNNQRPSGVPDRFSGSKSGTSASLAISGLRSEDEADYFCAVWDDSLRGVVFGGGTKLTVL = -5
3H8 (antibody, V domains shown, fully human XenoMouse hybridoma antibody; also called MAb 3H8) VH: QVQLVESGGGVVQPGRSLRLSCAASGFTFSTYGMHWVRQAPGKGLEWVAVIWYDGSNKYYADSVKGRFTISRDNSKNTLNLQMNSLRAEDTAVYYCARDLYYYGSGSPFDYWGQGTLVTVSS VL: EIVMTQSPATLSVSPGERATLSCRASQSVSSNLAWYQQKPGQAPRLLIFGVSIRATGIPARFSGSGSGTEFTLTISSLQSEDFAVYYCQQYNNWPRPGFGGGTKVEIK = 44
6D7 (antibody, V domains shown, fully human XenoMouse hybridoma antibody; also called MAb 6D7) VH: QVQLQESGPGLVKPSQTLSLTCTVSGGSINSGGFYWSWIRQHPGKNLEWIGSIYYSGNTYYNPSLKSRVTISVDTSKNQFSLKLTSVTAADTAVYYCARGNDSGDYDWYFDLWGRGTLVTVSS VL: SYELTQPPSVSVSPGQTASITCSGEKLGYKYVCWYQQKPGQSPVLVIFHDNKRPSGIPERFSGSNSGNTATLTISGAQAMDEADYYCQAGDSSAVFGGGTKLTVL = 111

Now for the binder whose % Inhibition of Gli1 reporter, Conditioned Media N = 2, 20 µg/ml we want.
// % Inhibition of Gli1 reporter, Conditioned Media N = 2, 20 µg/ml lookup, key: 1A5 (antibody, V domains shown, fully human XenoMouse hybridoma antibody; tested as hybridoma supernatant and as purified antibody; also called MAb 1A5) VH: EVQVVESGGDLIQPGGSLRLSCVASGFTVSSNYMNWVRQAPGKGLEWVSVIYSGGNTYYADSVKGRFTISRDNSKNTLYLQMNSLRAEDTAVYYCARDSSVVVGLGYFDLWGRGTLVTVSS VL: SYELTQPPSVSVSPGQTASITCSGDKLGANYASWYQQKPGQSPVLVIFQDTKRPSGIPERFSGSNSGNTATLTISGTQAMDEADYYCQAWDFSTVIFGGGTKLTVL
34
